This section presents compounds with their documented pIC50 values.
- System: 677734-321-R-J1-PDC complex spheroid viability;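 also: spheroids exposed to compounds for one week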
- method_description: Anticancer human tumor 677734-321-R-J1-PDC patient-derived soft tissue sarcoma cell line growth inhibition [POLQ]
- experimental_conditions: curve of first compound; second compound 1 µM
Worth noting: pIC50 values are minus log10 of concentrations stated in mol/L.

Here is how some compounds turned out for pIC50.
compound | experimental_target | recorded_result
COc1cccc2c1C(=O)c1c(O)c3c(c(O)c1C2=O)CC(O)(C(=O)CO)CC3OC1CC(N)C(O)C(C)O1 (centres undefined) + COC1C(OC(N)=O)C(O)C(Oc2ccc3c(O)c(NC(=O)c4ccc(O)c(CC=C(C)C)c4)c(=O)oc3c2C)OC1(C)C | 677734-321-R-J1-PDC complex spheroid viability | 6.83
CCCS(=O)(=O)Nc1ccc(F)c(C(=O)c2c[nH]c3ncc(-c4ccc(Cl)cc4)cc23)c1F + COC1C(OC(N)=O)C(O)C(Oc2ccc3c(O)c(NC(=O)c4ccc(O)c(CC=C(C)C)c4)c(=O)oc3c2C)OC1(C)C | 677734-321-R-J1-PDC complex spheroid viability | 5.19

// below: pIC50 requested for another compound
Value of measured pIC50 for the entry CC1COCCN1c1cc(C2(S(C)(=N)=O)CC2)nc(-c2ccnc3[nH]ccc23)n1 (centres undefined) + COC1C(OC(N)=O)C(O)C(Oc2ccc3c(O)c(NC(=O)c4ccc(O)c(CC=C(C)C)c4)c(=O)oc3c2C)OC1(C)C : 5.33
